Hey, just so you know, these numbers are from paper PMC4072508.

assayed target: T1, Mcl-1, Q07820
T1 chain: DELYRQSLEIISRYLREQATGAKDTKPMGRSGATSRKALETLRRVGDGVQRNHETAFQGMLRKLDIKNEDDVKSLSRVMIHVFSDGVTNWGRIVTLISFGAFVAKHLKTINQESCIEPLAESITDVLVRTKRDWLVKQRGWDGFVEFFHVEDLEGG
experimental details: peptide SPOT array, c-Myc-tagged receptor at 1 uM or 100 nM, anti-c-Myc-Cy3
Exercise: for every item that follows, state its recorded SPOT signal as a fraction of Bim BH3's signal on the same receptor and array.
When you answer, write just the number.

Data point: DHTDGVVACAAGLILDLCTAFGKDVL [KPNB1] ; SPOT signal as a fraction of Bim BH3's signal on the same receptor and array = 0.02

Data point: IQENVDISTVDQIFADEVLGSGQFGI [PRKD3] ; SPOT signal as a fraction of Bim BH3's signal on the same receptor and array = 0.03

Data point: NGGLLEFHKSLQEILDKNDHWFDIDP [DZIP3] ; SPOT signal as a fraction of Bim BH3's signal on the same receptor and array = 0.06

Data point: QAGPVSSGLADRKLGDRVQLLNLLVT [CCDC57] ; SPOT signal as a fraction of Bim BH3's signal on the same receptor and array = 0.07

Data point: VLELHPGAQRLHIGCDEVYYLGEGEA [HEXDC] ; SPOT signal as a fraction of Bim BH3's signal on the same receptor and array = 0.05

Data point: GKDHPAVAATLNNLAVLYGKRGKYKE [KLC1] ; SPOT signal as a fraction of Bim BH3's signal on the same receptor and array = 0.22

Data point: MSLFLRVVFSFTMFGDLFEEEYSTVS [USP40] ; SPOT signal as a fraction of Bim BH3's signal on the same receptor and array = 0.07
